# target.or.system: CDK2 (Homo sapiens)
# Construct: High-Throughput Measurement of Cellular Endogenous CDK2; endogenous in cells; host or cells: OVCAR3
# method.description: High-throughput HTRF measurement of cellular endogenous CDK2 level (degradation, DC50/Dmax) in OVCAR3 cells, 6 h
# Type: cell-based
# assay.conditions: 6 h compound treatment, HTRF total CDK2, read-out: DC50_OVCAR3_6h
Please provide measured DC50 for the entries that follow.

Past entries and their recorded results:
{"compound": "Cn1nc(-n2ccc(=O)[nH]c2=O)c2ccc(C3CCN(CC4CCN(c5cccc(S(=O)(=O)N6CCC(Nc7ncc(C(F)(F)F)cn7)CC6)c5)CC4)CC3)cc21 [Example 211]", "reported.endpoint": "DC50", "data.value": "1000 to 5000 nM"}
{"compound": "O=C1CCC(n2c(=O)oc3c(C4CCN(CC5CCN(c6cccc(S(=O)(=O)N7CCC(Nc8ncc(Cl)cn8)CC7)c6)CC5)CC4)cccc32)C(=O)N1 (stereo not drawn) [Example 168]", "reported.endpoint": "DC50", "data.value": "10 to 100 nM"}

Okay, next one:
Q: Returns the measured DC50 for the input compound. Input: Cn1nc(N2CCC(=O)NC2=O)c2ccc(C3CCN(CC4CCN(c5cccc(S(=O)(=O)N6CCC(Nc7ncc(Cl)cn7)CC6)c5)CC4)CC3)c(F)c21 [Example 95]
A: 1 to 10 nM

====

# target.or.system: CDK2 (Homo sapiens, UniProt P24941)
# Construct: High-Throughput Measurement of Cellular Endogenous CDK2; endogenous in cells
# method.description: Inhibition of CDK2: phospho-Rb (S807/811) HTRF measurement in OVCAR3 cells, 24 h
# assay.conditions: 24 h compound treatment, read-out: pRB_OVCAR3_24h
pIC50: −log10 of the molar value.
reported.endpoint: pIC50

{"compound": "CC(Cc1cccc(S(=O)(=O)N2CCC(Nc3ncc(C(F)(F)F)cn3)CC2)c1)CN1CCC(c2ccc3c(N4CCC(=O)NC4=O)nn(C)c3c2)CC1 (stereo not drawn)", "reported.endpoint": "pIC50", "data.value": "7.00 to 9.00"}
{"compound": "Cn1nc(N2CCC(=O)NC2=O)c2ccc(C3CCN(CC4CCN(c5cccc(S(=O)(=O)N6CCC(Nc7ncc(C(F)F)cn7)CC6)c5)CC4)CC3)cc21", "reported.endpoint": "pIC50", "data.value": "5.60 to 6.30"}
{"compound": "CC(Cc1cccc(S(=O)(=O)N2CCC(Nc3ncc(OC(F)F)cn3)CC2)c1)CN1CCN(c2cc3c(cc2F)C(=O)N(C2CCC(=O)NC2=O)C3)CC1 (stereo not drawn)", "reported.endpoint": "pIC50", "data.value": "5.60 to 6.30"}

I need pIC50 for every entry listed below, if you could help.
1. Cn1nc(C2CCC(=O)NC2=O)c2ccc(C3CCN(CC4CCN(c5cccc(S(=O)(=O)N6CCC(Nc7ncc(Cl)cn7)CC6)c5)CC4)CC3)cc21 (stereo not drawn)
2. Cn1nc(N2CCC(=O)NC2=O)c2ccc(C3CCN(CCc4cccc(S(=O)(=O)N5CCC(Nc6ncc(C(F)(F)F)cn6)CC5)c4)CC3)cc21
3. Cn1nc(N2CCC(=O)NC2=O)c2ccc(C3CCN(C(c4cccc(S(=O)(=O)N5CCC(Nc6ncc(Cl)cn6)CC5)c4)C(F)F)CC3)cc21 (stereo not drawn)

A:
5.60 to 6.30
7.00 to 9.00
5.60 to 6.30
